Items are presented alongside their recorded apparent KD of MS2 coat protein.
- Test system: MS2 coat protein
- procedure.summary: apparent KD of MS2 coat protein; designed switch direction (-1 OFF switch, 1 ON switch): 1; higher = weaker reporter binding
- test.context: Eterna round: R95; input ligand: microRNA oligo, concentration not stated
State just the number; it will be interpreted in nM.

See these solved cases before continuing.
monomer.sequence	apparent KD of MS2 coat protein, nM
GACAGGCAGGCUUUUUCCUCGUAGUGUAAACAUGAGGAUCACCCAUGUGCUCGCCCUGGAUCUUUGGAUCGCAGGAA [Tibeon] (puzzle: Sensor for hsa-mir-208a)	124
AUUAAACAUGAGGAUCACCCAUGUCAACUAAGUCGAGGAUAUGGGCAAAUAAAAUAAGAACCAGAAGGCGAAUAAU [salish99_ss1_r3_074] (puzzle: Same State 1)	347

Now for the sequence whose apparent KD of MS2 coat protein we want.
Exam item: # value lookup — system MS2 coat protein, readout apparent KD of MS2 coat protein, item AGAAAACAUGAGGAUCACCCAUGUAUAGUGAAUACAGGAUAUCAUCGACGGAAUAGUUGAUGAGAAGGGUGAUCGC [Gebiatan] (puzzle: Same State 1)
Marked response: 14.4
